MEASUREMENT TARGET: Protein kinase C epsilon type (Homo sapiens)
CONDITION DESCRIPTION: at 10 µM
ASSAY READOUT: residual activity (%)
Supply the numeric figure in %, leaving out any unit text.

Tested on Protein kinase C epsilon type (Homo sapiens), the item COc1cc2ncnc(N3CCN(C(=O)Nc4ccc(Oc5ccccc5)cc4)CC3)c2cc1OC showed residual activity equal to 90

Measured on Protein kinase C epsilon type (Homo sapiens), Cc1ccc(S(=O)(=O)/C=C/C#N)cc1 has a documented residual activity of 92

The recorded residual activity with Protein kinase C epsilon type (Homo sapiens) for N#CC(C#N)=C(N)/C(C#N)=C/c1ccc(O)cc1 was 89
